Where these numbers come from: PubChem BioAssay (NCATS)

# Assay Method Text: Drug repurposing screens with cells derived from glioblastoma tumor samples (AID 1345199); also: % is scaled to controls: 0 for no effect and ±100 for the full control effect
# Test Settings: GBM patient neurospheres viability, ATP luminescence, 48 h; at 46.1 µM (top of the series); tumour line C
Records with an inconclusive call do not appear.
Below, each of the compounds is paired with its reported activity, negative = cell killing value.
Express your answer in %, writing the number without its unit.

Prompt: Sample c1ccc(-n2cnnn2)cc1 — what was its activity, negative = cell killing?
Completion: -0.778

Prompt: Sample CCC(C(=O)NC(N)=O)c1ccccc1 (stereo not given) — what was its activity, negative = cell killing?
Completion: -14.2

Prompt: Sample O=C(O)c1cc(N=Nc2ccc(O)c(C(=O)O)c2)ccc1O — what was its activity, negative = cell killing?
Completion: -29.5

Prompt: Sample C[C@@](Cc1ccc(O)c(O)c1)(NN)C(=O)O — what was its activity, negative = cell killing?
Completion: -14.3

Prompt: Sample C[C@H](CCC(=O)O)[C@H]1CC[C@H]2[C@@H]3CC[C@@H]4C[C@H](O)CC[C@]4(C)[C@H]3C[C@H](O)[C@]12C — what was its activity, negative = cell killing?
Completion: -8.85

New cases:
Prompt: Sample CO[C@H]1C=CO[C@@]2(C)Oc3c(C)c(O)c4c(O)c(cc(O)c4c3C2=O)NC(=O)/C(C)=C\C=C/[C@H](C)[C@H](O)[C@@H](C)[C@@H](O)[C@@H](C)[C@H](OC(C)=O)[C@@H]1C — what was its activity, negative = cell killing?
Completion: -2.25

Prompt: Sample CCCCCCCCCCCCCCCCCCOCC(COP(=O)([O-])OCC[N+](C)(C)C)OC (stereo not given) — what was its activity, negative = cell killing?
Completion: -1.43

Prompt: Sample Oc1cc(O)cc(O)c1 — what was its activity, negative = cell killing?
Completion: -10.5

Prompt: Sample C=C1CC[C@H](O)CC1=C/C=C1\CCC[C@]2(C)[C@@H]([C@H](C)/C=C/[C@H](C)C(C)C)CC[C@@H]12 — what was its activity, negative = cell killing?
Completion: 6.83

Prompt: Sample CO[C@H]1O[C@@H]2O[C@@]3(C)CC[C@H]4[C@H](C)CC[C@@H]([C@H]1C)[C@@]24OO3 — what was its activity, negative = cell killing?
Completion: -10.2
